As shown below, each of these compounds has a reported GABAA, PDSP raw data, mean value.
Tested on: GABAA
Test: PDSP primary binding GABAA
Settings: primary binding, 10,000 nM; last figure of the line = mean of the 4 before it; some tables list it twice
Procedure: To determine if any off-target receptor-binding effects are present, all the novel ligands were sent to the National Institute of Mental Health (NIMH), Psychoactive Drug Screening Program (PDSP). […] The hERG-binding was also determined. […] The binding of a ligand to a receptor, ion channel, or transporter was determined in the […] of 10 µM of the appropriate reference compound. […] Radioactivity was then counted on a Microbeta counter. […]
readoutLabel: GABAA, PDSP raw data, mean (%)

>>> obsvalue("C[C@H]1N=C(c2ccccc2F)c2cc(-c3ccccc3)ccc2-n2cnc(C(=O)N(C)C)c21 [Compound 5]")
-4.01
>>> obsvalue("C#Cc1ccc2c(c1)C(c1ccccn1)=N[C@@H](C)c1c(C(=O)NC)ncn1-2 [Compound 23]")
23.24
>>> obsvalue("CCc1noc(-c2ncn3c2[C@@H](C)N=C(c2ccccc2F)c2cc(C4CC4)ccc2-3)n1 [Compound 46]")
19.52
>>> obsvalue("CCc1noc(-c2ncn3c2[C@@H](C)N=C(c2ccccc2F)c2cc(-c4ccccc4)ccc2-3)n1 [Compound 35]")
16.02
>>> obsvalue("C#Cc1ccc2c(c1)C(c1ccccc1Cl)=N[C@H](C)c1c(C(=O)NC)ncn1-2 [Compound 21]")
12.76
>>> obsvalue("C#Cc1ccc2c(c1)C(c1ccccc1Cl)=N[C@H](C)c1c(C(=O)N(C)CC)ncn1-2 [Compound 29]")
25.77
